assay-name: soluble on expression in E. coli; label from the status in PepcDB or PDB records
quantity: soluble on expression in E. coli

[[record]]
seq_string = "PAFALTSPWAGSDAAAIPDHGTVCKGQWQGQEVLGMRVTWDKRYITLAPVCTLLGLAFRLYDPDGLLGGRKDLGITCALVPHDHPGVDTGRRHFPLNAMFMNGPTRGTDVFMPLEFIIDG"
quantity = "soluble on expression in E. coli"
value = "not soluble"

[[record]]
seq_string = "MSSTLPVINLMGPTASGKTALACELYERGHFELISVDSALIYKDMDIGTAKPTKEELALYPHHLIDIITPLEVYSAAQFVEDATQLIDQIHMKGKTPILVGGTMLYFKSLLEGLSTNLPSADAEVRAAIEKQAEQEGWQSVYDELARVDPVAGARFKVSDRQRIIRAIEVYRLTGQPITKLQAEQPKNVPYRYTFHNYALLPDRIELHKRIEQRLFKMWSIGFLNEVESLIKKYDLNDNLPSMRSVGYRQALDFLLKSDMSHNNRREMEDKALFATRQLAKRQYTWLRSLQETHYFKTYLTIKQAQEDLRNSYGLEHHHHHH"
quantity = "soluble on expression in E. coli"
value = "soluble"

[[record]]
seq_string = "IKPGAKMGVIGSGIASVYAKEALQELGLEASFLKIGTYPVPKKLILELLSTVDTVLIFEELEPVVEEQVRILAQEAGLEVSVLGKEGGFVSREGELDVSAFLEALRKAFDLDIEPDSGKVPLELAPRPPSLCAGCSHRATFYSMKKVFGKDAIYPSDIGCYTLGIQSGTVETTLCMGSSISIASGLYHAGEKRPICCSIGDSTFFHTGMNSLLNAVFNKANITVTILDNRITAMTGHQPNPGVGFTVTGEPTVEVSLAELCKAMGAGFVTVV"
quantity = "soluble on expression in E. coli"
value = "not soluble"

[[record]]
seq_string = "MREILNHFDRPLNKKNSFQKIQNLSCQTHTKRFYREVKISCEEGGFSVLLDGCPVKTPAKRHFCLPTEVFAAFVAEEFENQKQVIDPAKMPMTRLVNTVIDGIADNMQAVFEDLLRFVACDMIFYRAQTPKELVQRQCEQWDPLLDWAEEKLGARFHVTEGLMHIEQSRESIQAVSNYLRKVESPYMLAALHTITTLTGSALIALAFSEGKIDSEHAWKIAHLDENWMMEQWGIDEETLARSSHKKSEFDAAGTIITTCLLEHHHHHH"
quantity = "soluble on expression in E. coli"
value = "not soluble"

[[record]]
seq_string = "MAKGDPKKPKGKMSAYAFFVQTCREEHKKKNPEVPVNFAEFSKKCSERWKTMSGKEKSKFDEMAKADKVRYDREMKDYGPAKGGKKKKDPNAPKRPPSGFFLFCSEFRPKIKSTNPGISIGDVAKKLGEMWNNLNDSEKQPYITKAAKLKEKYEKDVADYKSKGKFDGAKGPAKVARKKVEEEDEEEEEEEEEEEEEEDE"
quantity = "soluble on expression in E. coli"
value = "soluble"

[[record]]
seq_string = "MTTSIQRRISIVIPCLNDAVLLEQCLSSIVAQTLQPEEVIVVDNGSTDNSVEVANRMGARVVHEPLQGITWASAAGYNSARGDLIVRFDADCVIPPDHLSQVNAIWNRTEETPGRTIVALTGTGSFDIPGRMGEWLALCYLGAYRWSTKQALGHYPIFGSNSVISRQWWEDVKDQITLSETFVHEDMYFSFFVRPHETVWFEKNLKLIMHPRALMGVRQSFIRLVRGFYTIKIAWKREPVHQRLESRRDWTLEHHHHHH"
quantity = "soluble on expression in E. coli"
value = "not soluble"

[[record]]
seq_string = "MRREALKTAVLKIMIEKMELKNVTHLEETMRLNQDLYIDSVMMLQLIVYIEMDVKLCVPEDEVDPKAFLTVGSLLDFMEELEPLQEVNVNN"
quantity = "soluble on expression in E. coli"
value = "not soluble"

